Please go through the items and note down their GI50.
test system: SNB-75; experiment: NCI tumour cell line growth inhibition, 48 h
Activity calls are given as the source filed them. Cut-off read from the data, not from the text of the source: active = GI50 up to about 1.1 µM and inactive = higher.

Problem: // query GI50 value for entry N#CC(C#N)c1ccc(C(=O)N2CCC[C@H]2CO)cc1
Result: > 100 µM (inactive)

Problem: // query GI50 value for entry N#CCCc1nc2ccc(Br)cc2c(=O)n1CCO
Result: > 100 µM (inactive)

Problem: // query GI50 value for entry CC(C)(C)C(=O)O[C@@H]1COC2C(O)COC21 (stereo partly specified)
Result: > 100 µM (inactive)

Problem: // query GI50 value for entry O=C(NC12CC3CC(CC(C3)C1)C2)n1cnc2cncnc21
Result: 44.5 µM (inactive)

Problem: // query GI50 value for entry CCOC(=O)c1sc(=S)n(-c2ccc(Cl)cc2)c1-n1cc(-c2ccccc2)c(C#N)c1N
Result: 16 µM (inactive)

Problem: // query GI50 value for entry Cc1ccc(/N=N/C(=O)NNc2ccc(C)c([N+](=O)[O-])c2)cc1[N+](=O)[O-]
Result: 19.6 µM (inactive)

====

system: 786-0; assay: NCI tumour cell line growth inhibition, 48 h
Calls of active or inactive are those of the source. Cut-off read from the data, not from the text of the source: active = GI50 up to about 1.1 µM and inactive = higher.
Please go through the items and note down their GI50.

Problem: // query GI50 value for entry COc1cc2c(cc1C[C@H]1[C@@H]3C[C@H]4c5c(c6ccccc6n5C)C[C@@H]([C@@H]3CO[C@]1(C)OC(C)=O)N4C)c1c(n2C)C2C[C@H]3C(C(C)=O)=COC[C@H]3[C@H](C1)N2C
Result: 2.86 µM (inactive)

Problem: // query GI50 value for entry COc1ccc2nc(N/N=C/C(C)=N/Nc3cc(C)c4cc(OC)ccc4n3)cc(C)c2c1
Result: 14 µM (inactive)

Problem: // query GI50 value for entry C[N+]1(C)CCOC(O)(c2ccccc2)C1 (centres undefined)
Result: > 100 µM (inactive)

Problem: // query GI50 value for entry COc1cc2c(cc1OC)C1=Cc3ccc(OC)c(OC)c3C(C#N)N1CC2 (centres undefined)
Result: 78.5 µM (inactive)

====

system: K562; assay: NCI tumour cell line growth inhibition, 48 h
The source made the active and inactive calls. No stated cut-off is given here; in the data, active = GI50 up to about 1.1 µM and inactive = higher.
OBSERVABLE: GI50

Problem: Which measured GI50 belongs to COc1ccc2nc(N/N=C/C(C)=N/Nc3cc(C)c4cc(OC)ccc4n3)cc(C)c2c1 , tested on K562?
Result: 3.9 µM (inactive)

Problem: Which measured GI50 belongs to CCCCCCc1cc2cc(C(=O)NCc3ccccc3)c(=N)oc2cc1O , tested on K562?
Result: > 100 µM (inactive)

Problem: Which measured GI50 belongs to C/C(=N\NC(N)=S)c1ccccn1.OB(O)c1ccccc1 , tested on K562?
Result: 3.61 µM (inactive)

Problem: Which measured GI50 belongs to CC1=NN(c2cccc(Cl)c2)C2(C1=Cc1ccc(N(C)C)cc1)C(Cl)C(=O)N2c1nc2ccccc2s1 (stereo not given) , tested on K562?
Result: 56.9 µM (inactive)

Problem: Which measured GI50 belongs to CCOC(=O)NC(N(C)C(C(C)C)P(=O)(OCC)OCC)(C(F)(F)F)C(F)(F)F (stereo not given) , tested on K562?
Result: > 100 µM (inactive)

Problem: Which measured GI50 belongs to CCOC(=O)/C(C(=O)c1ccccc1)=C1\N[C@H](C(=O)OCC)CS1 , tested on K562?
Result: > 100 µM (inactive)

Problem: Which measured GI50 belongs to COc1cc(CSc2ccc(O)cc2)cc(O)c1O , tested on K562?
Result: 31.6 µM (inactive)

Problem: Which measured GI50 belongs to C=C1C(=O)O[C@@H]2C[C@]3(C)CC[C@]4(C)[C@H](CC[C@@H]5[C@@]6(C)CCC(=O)C(C)(C)[C@@H]6CC[C@]54C)[C@H]3[C@H]12 [OCHRACEOLIDE A] , tested on K562?
Result: 4.45 µM (inactive)

Problem: Which measured GI50 belongs to Cc1nc2ccc([N+](=O)[O-])cc2c(=O)n1C(=S)Nc1cccc(Cl)c1 , tested on K562?
Result: 20.7 µM (inactive)

Problem: Which measured GI50 belongs to COC(=O)C12CCC(CC1=O)C2(C)C (stereo not given) , tested on K562?
Result: > 100 µM (inactive)
